test.method.notes: label from the status in PepcDB records
test.readout: protein production

Sample records with protein production:
• MIFSFIFKVAVISSSGALAPGPLTAATAAIGVKRGWKGGFWVSVGHAAVELPLVILIATGVAVVLTHSSALSLLSVAGGVMLLSFAFLTAKSAFSKTEEKAESSANPFSTGVALSALNPFFIAWWAGVGAVLITEAISLWGYAGIAVLYLSHVWLDFAWLILLAHLTSMAIFSAKAYRALLVALAALVFLFGVDFLHYGLFSKHLLPI = failed
• MTNPEATDKEGKNYALFIGDTVLVGEQSPASVMTPSKKKIKNVGIFIKDDSDEEDVDDKKTAKEDQGTEILGRSKRNAVLESKLRNEINTEEKRKEHQRELAQQLNERAKDRLARQGNSKEVEKVRKNTVSYKSISQMPREPEVKELKLYVDKKYETV = failed
• MFADNTLTPKEAVRLCALGTIASQPMRYSELAGSVRHFTSRIMGPSLELMGISIELLRYEGLVEAVDDGQGMEDDAMLAISAAGRRELHSLLTARLRPGSDLSKLVVALKMRFLGLMEAEERAHQIDLLIEGVDSELARLADLRGSDGEGGSALAAWLDHDMALLESRLAWLEDFRARL = not failed
• MKLVTYNIQYGIGLDGQYDVARIADAVRGADVVALQEVTRNNPRNGGRDMVAEIGEALPDYFAVYGSNFEANIGSRIENGRAITTTFQLGNMMLSKTPIHLSRNLLLPRSRSFEMMNFQRGALEALIETPLGFIRFYSIHLDHRSPVERASQIQFLRRRLLNYALEGGALSGVAEIGLPELPHPEAFVAMGDFNMLAGSPEYVELAGRPDHQFGMPLTADFAVDAAVRLNVTGDDLASWVDPKDPANTSRHKRIDYVFTSASPARSLQHLWVDHQATGSDHLPVWAELG = failed
• MIQQRANFDWMLKELADGVPGVHQIVVLSADGLRIARYGGDPDAADRVAAACAGLQSLAGAVATEIPHSDGKMRMVIIEMDGAYFYMMAAGPNAYLAVLSDVTAEAGLMSNRMRDLVVRIGAHLTSPPRRNGQTV = failed
• MRTDNINHWDVVAETYSEENNRGRNFHSQIYLAAVNELLGNVKGKCVLDAGCGDGFFSLELAQKGALVTAVDSSEAMLSIAKHKHVHDNLQYYNMDLTRELTFEDKFFDIVVANMLLMDIPEIELLIFEIARVLKKPGTFIFSITHPCFFLSDWEENENNIKTYKKIGNYLEERVEELNFWGKTLHYHRPLSRYMEAVEKAGMYVSSLREPVPPRELIELYPEQEYHCRIPSFVVIMAQMV = failed
• MNTEPANVEDKLPMNILVLGSDEKQGGRSDTIMLVHIQKDFQPIVISIPRDTRVKVEGIKGYSKINAAYAYGKSKLAVKTVEDILGIKIDKYVVVNYEAVEKIVDLVGGVDVEVPFHLYYVDTTPGKELYINIPAGLQHLDGKKAVEFLRWRHNSNGKEYGRGGDLGRIEMQRKLLYALIEKMLKPQNIVRLPLIVQTVSKYTDHNFTKNEIMWFIQNVGKFNTQNIMMTILPGYPKYIDRVSYYILNEEKCRALIDDLNEPEVLKDSMKIKILSKSFDDKATQLKNDLESKGYSNVNLGRVSKLESSEVELKRVNRKYLELLKNDIDLSTYQVVYSPDYSDKFDVYIKVKLEHHHHHH = not failed
• MTSFEDADTEETVTCLQMTVYHPGQLQCGIFQSISFNREKLPSSEVVKFGRNSNICHYTFQDKQVSRVQFSLQLFKKFNSSVLSFEIKNMSKKTNLIVDSRELGYLNKMDLPYRCMVRFGEYQFLMEKEDGESLEFFETQFILSPRSLLQENNWPPHRPIPEYGTYSLCSSQSSSPTEMDENES = failed

INPUT: What value of protein production has been recorded for this entry: "MIIDINRLDRAFDLIKEGVSKGVFPGAVAAVGTRERVIRLESFGNRCLYPEKLSMNKDTLFDLASLTKVVATNTLFMIFLEKGLISVYDNVSYYLEKFKGKNKDDVTIFNLLTHTAGFVPCKPLYKLCKGYEDSIDYICRCGLSYKPGTKCVYSDFSYILLAYILEKIGGDTLDILCDRYIFKPLYMENTTFKPKGNNIAATEIDKKTKKPLIGVCHDENGRFFGGISGHAGLFSDIYDLCKFSNMLVNEGKGIISYASFKAMTTNHTLGLEDNRGYGWCIKGDKNSFMGDIAFPETFGHNGFTGTSLWVDIKNNIYAILLTNRVHPTRDNLRIIRFRRVFSNAVLASLTRLEHHHHHH"
OUTPUT: failed

INPUT: What value of protein production has been recorded for this entry: "MKKKLDRREAVRSEKKTLPWRKKRSSRGCCWRRRVATAVGEEESRRLMEKTRRDGEEEEVTSDGGSWNGKKKLYRRRRRYLGEETDRLAAEAGEEELRRLLENKRRGREEEERRRRNQIEEEERRRRRK"
OUTPUT: failed

INPUT: What value of protein production has been recorded for this entry: "MKRVAIFASGSGTNAEAIIQSQKAGQLPCEVALLITDKPGAKVVERVKVHEIPVCALDPKTYPSKEAYEIEVVQQLKEKQIDFVVLAGYMRLVGPTLLGAYEGRIVNIHPSLLPAFPGLHAIEQAIRANVKVTGVTIHYVDEGMDTGPIIAQEAVSIEEEDTLETLTTKIQAVEHRLYPATLHKLLSK"
OUTPUT: not failed

INPUT: What value of protein production has been recorded for this entry: "NNVIGALCVFQDISELVGIKELNERFQKILETSHDLICFIDENRKISYINPTYEKCLNIKSEDVLGKDLMKISPD"
OUTPUT: failed

INPUT: What value of protein production has been recorded for this entry: "MEKLSAREKPDINVAEAWEQYWNKTLVNATPVLWDANVERAVVVDLPRFQSFFDTELPLIDFACGNGTQTKFLSQFFPRVIGFDVSKTALEMASKENTAANISYRLLDGLVPEQAAQIHSEIGDANIYMRTGFHHIPVEKRELLAQSLRTLLGKQGVMYLIELGTGCIEFFNSLLEKYGKLPYELSLVMEHGIRPGIFTTEDIELYFPDFEILSQGESLFQSIHKLPDGNYATPPAFWAVIKRH"
OUTPUT: failed

Reference for the values: a protein production outcome set (Wang et al. 2014)
